src = ChEMBL document CHEMBL1152649

Test system: HCC 2998
protocol.text: Antiproliferative activity against human HCC2998 cells assessed as cell growth at 10 uM
Format: functional
condition.details: read-out: Activity
Record form. Attribute: growth at 10 µM. Fill in for each entry.
Write the number in % without appending the unit.

// query I have this compound here, O=C1c2ccccc2C(=O)c2c1ccc1nsnc21 , and I need its recorded growth at 10 µM.
// result -0.74

// query I have this compound here, O=C1c2ccccc2C(=O)c2c1ccc1nc(-c3ccc(Br)cc3)[nH]c21 , and I need its recorded growth at 10 µM.
// result 98.1

// query I have this compound here, N#Cc1ccc(-c2nc3ccc4c(c3[nH]2)C(=O)c2ccccc2C4=O)cc1 , and I need its recorded growth at 10 µM.
// result 74.7

// query I have this compound here, COc1cc(-c2nc3ccc4c(c3[nH]2)C(=O)c2ccccc2C4=O)ccc1O , and I need its recorded growth at 10 µM.
// result 103

// query I have this compound here, O=C1c2ccccc2C(=O)c2c1ccc1nccnc21 , and I need its recorded growth at 10 µM.
// result -7.15

// query I have this compound here, CCc1nc2ccc3c(c2[nH]1)C(=O)c1ccccc1C3=O , and I need its recorded growth at 10 µM.
// result 67.7

###

assayed.target: Telomerase reverse transcriptase (Homo sapiens) (UniProt O14746)
Sequence (O14746 whole entry): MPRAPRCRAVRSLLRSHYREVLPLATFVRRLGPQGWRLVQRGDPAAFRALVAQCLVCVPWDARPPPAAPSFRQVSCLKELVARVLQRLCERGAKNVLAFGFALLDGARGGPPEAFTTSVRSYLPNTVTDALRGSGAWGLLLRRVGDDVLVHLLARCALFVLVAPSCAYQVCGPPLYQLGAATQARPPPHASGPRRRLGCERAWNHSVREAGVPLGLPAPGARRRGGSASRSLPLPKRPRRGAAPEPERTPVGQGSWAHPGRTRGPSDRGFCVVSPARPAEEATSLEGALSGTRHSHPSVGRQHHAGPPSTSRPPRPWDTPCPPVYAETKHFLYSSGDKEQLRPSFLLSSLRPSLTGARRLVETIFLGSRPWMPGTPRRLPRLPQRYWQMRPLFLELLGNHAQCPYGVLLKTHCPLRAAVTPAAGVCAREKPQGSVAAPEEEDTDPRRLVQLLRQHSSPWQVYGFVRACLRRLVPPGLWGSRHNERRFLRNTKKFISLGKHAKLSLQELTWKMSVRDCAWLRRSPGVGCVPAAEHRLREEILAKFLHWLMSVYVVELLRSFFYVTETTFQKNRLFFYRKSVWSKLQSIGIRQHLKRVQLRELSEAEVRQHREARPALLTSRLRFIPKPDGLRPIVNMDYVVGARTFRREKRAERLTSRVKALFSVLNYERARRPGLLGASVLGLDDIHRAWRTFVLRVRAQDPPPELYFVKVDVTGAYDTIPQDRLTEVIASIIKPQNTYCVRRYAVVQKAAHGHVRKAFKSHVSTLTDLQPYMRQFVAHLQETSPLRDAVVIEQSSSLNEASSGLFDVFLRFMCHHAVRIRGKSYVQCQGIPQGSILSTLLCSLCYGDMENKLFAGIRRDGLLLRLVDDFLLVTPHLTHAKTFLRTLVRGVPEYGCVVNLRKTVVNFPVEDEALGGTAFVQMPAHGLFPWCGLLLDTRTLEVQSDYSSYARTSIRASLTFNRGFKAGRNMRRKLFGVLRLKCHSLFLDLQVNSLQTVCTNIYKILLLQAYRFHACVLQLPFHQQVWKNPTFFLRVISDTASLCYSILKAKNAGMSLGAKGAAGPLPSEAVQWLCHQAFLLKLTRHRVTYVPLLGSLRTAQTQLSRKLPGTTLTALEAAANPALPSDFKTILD
protocol.text: Inhibition of TERT in human H1299 cells assessed as residual transcriptional activity at 100 uM after 24 hrs by SEAP reporter gene assay; values are per cent of control
observable: residual activity (%)
Write the number in % without appending the unit.

// query I have this molecule here, O=C1c2ccccc2C(=O)c2c1ccc1nc(-c3ccc([N+](=O)[O-])cc3)[nH]c21 , and I need its recorded residual activity.
// result 6

// query I have this molecule here, O=C1c2ccccc2C(=O)c2c1ccc1[nH]c(=S)[nH]c21 , and I need its recorded residual activity.
// result 31

// query I have this molecule here, N#Cc1ccc(-c2nc3ccc4c(c3[nH]2)C(=O)c2ccccc2C4=O)cc1 , and I need its recorded residual activity.
// result 30

// query I have this molecule here, O=C1c2ccccc2C(=O)c2c1ccc1nsnc21 , and I need its recorded residual activity.
// result 9

// query I have this molecule here, O=C1c2ccccc2C(=O)c2c1ccc1nc(-c3ccccc3)[nH]c21 , and I need its recorded residual activity.
// result 10

// query I have this molecule here, CC1(c2ccccc2)Nc2ccc3c(c2N1)C(=O)c1ccccc1C3=O (centres undefined) , and I need its recorded residual activity.
// result 29

// query I have this molecule here, Cc1nc2ccc3c(c2[nH]1)C(=O)c1ccccc1C3=O , and I need its recorded residual activity.
// result 19

// query I have this molecule here, CC(C)c1nc2ccc3c(c2[nH]1)C(=O)c1ccccc1C3=O , and I need its recorded residual activity.
// result 13

// query I have this molecule here, CN(C)c1ccc(-c2nc3ccc4c(c3[nH]2)C(=O)c2ccccc2C4=O)cc1 , and I need its recorded residual activity.
// result 21

// query I have this molecule here, CCC(C)c1nc2ccc3c(c2[nH]1)C(=O)c1ccccc1C3=O (centres undefined) , and I need its recorded residual activity.
// result 11

// query I have this molecule here, COc1ccc(OC)c(-c2nc3ccc4c(c3[nH]2)C(=O)c2ccccc2C4=O)c1 , and I need its recorded residual activity.
// result 41

// query I have this molecule here, O=C1c2ccccc2C(=O)c2c1ccc1nc(CCl)[nH]c21 , and I need its recorded residual activity.
// result 5

// query I have this molecule here, Cc1ccc(-c2nc3ccc4c(c3[nH]2)C(=O)c2ccccc2C4=O)cc1 , and I need its recorded residual activity.
// result 29

// query I have this molecule here, CC/C=C/c1nc2ccc3c(c2[nH]1)C(=O)c1ccccc1C3=O , and I need its recorded residual activity.
// result 13

// query I have this molecule here, CCCCc1nc2ccc3c(c2[nH]1)C(=O)c1ccccc1C3=O , and I need its recorded residual activity.
// result 36

// query I have this molecule here, CC(C)(C)c1nc2ccc3c(c2[nH]1)C(=O)c1ccccc1C3=O , and I need its recorded residual activity.
// result 29

// query I have this molecule here, O=C1c2ccccc2C(=O)c2c1ccc1nccnc21 , and I need its recorded residual activity.
// result 24

// query I have this molecule here, CC1(C)Nc2ccc3c(c2N1)C(=O)c1ccccc1C3=O , and I need its recorded residual activity.
// result 9

// query I have this molecule here, O=C1c2ccccc2C(=O)c2c1ccc1nc(-c3ccc4c(c3)OCO4)[nH]c21 , and I need its recorded residual activity.
// result 34

// query I have this molecule here, Cc1nc2ccc3c(c2nc1C)C(=O)c1ccccc1C3=O , and I need its recorded residual activity.
// result 26

// query I have this molecule here, O=C1c2ccccc2C(=O)c2c1ccc1nc(-c3ccc(Br)cc3)[nH]c21 , and I need its recorded residual activity.
// result 36

// query I have this molecule here, COc1cc(-c2nc3ccc4c(c3[nH]2)C(=O)c2ccccc2C4=O)ccc1O , and I need its recorded residual activity.
// result 8

// query I have this molecule here, CCCCCCCc1nc2ccc3c(c2[nH]1)C(=O)c1ccccc1C3=O , and I need its recorded residual activity.
// result 32

// query I have this molecule here, CCc1nc2ccc3c(c2[nH]1)C(=O)c1ccccc1C3=O , and I need its recorded residual activity.
// result 25
